# Tested On: α1A Human Adrenergic Receptor (Homo sapiens, UniProt P25100)
# Construct: The entire coding region of α1A (1719 bp); expressed in transfected cells
# Sequence (P25100 whole entry): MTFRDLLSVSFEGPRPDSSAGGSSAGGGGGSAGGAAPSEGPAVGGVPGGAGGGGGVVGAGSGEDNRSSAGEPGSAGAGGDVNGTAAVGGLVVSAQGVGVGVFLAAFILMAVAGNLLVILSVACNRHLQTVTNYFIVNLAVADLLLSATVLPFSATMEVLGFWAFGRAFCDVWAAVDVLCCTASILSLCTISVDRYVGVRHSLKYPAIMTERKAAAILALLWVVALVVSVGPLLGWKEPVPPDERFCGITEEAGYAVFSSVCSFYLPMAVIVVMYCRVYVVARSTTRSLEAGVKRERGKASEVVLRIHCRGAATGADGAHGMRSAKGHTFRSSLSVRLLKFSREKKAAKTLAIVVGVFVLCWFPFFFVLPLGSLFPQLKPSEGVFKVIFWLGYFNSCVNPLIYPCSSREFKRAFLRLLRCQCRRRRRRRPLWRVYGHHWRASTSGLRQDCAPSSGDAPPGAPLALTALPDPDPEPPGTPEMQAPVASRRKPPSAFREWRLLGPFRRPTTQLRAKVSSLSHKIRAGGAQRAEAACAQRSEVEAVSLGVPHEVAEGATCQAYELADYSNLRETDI
# Protocol Description: Radioligand binding, [3H]prazosin, cloned human α1A adrenergic receptor
# Condition Label: [3H]prazosin, cloned human receptor, LM(tk-) cell membranes; mean; read-out: PKi alpha-1 1a (converted)
# Ki per entry

Known results for compounds:
>  <Compound>
CCC1=C(C(=O)NC)C(c2ccc([N+](=O)[O-])cc2)C(C(=O)NCCCN2CCC(C(=O)OC)(c3ccccc3)CC2)=C(COCCN)N1 (stereo not drawn) [Example 229]

>  <Result>
4.17 µM

$$$$
>  <Compound>
COC(=O)C1(c2ccccc2)CCN(CCCNC(=O)C2=C(C)NC(C)=C(C(=O)OCCO)C2c2ccc([N+](=O)[O-])cc2)CC1 (stereo not drawn) [Example 207]

>  <Result>
1.86 µM

$$$$
>  <Compound>
CCOC(=O)C1(c2ccccc2)CCN(CCCNC(=O)C2=C(COCCN=[N+]=[N-])NC(CC)=C(C(=O)O)C2c2ccc([N+](=O)[O-])cc2)CC1 (stereo not drawn) [Example 189]

>  <Result>
4.68 µM

$$$$

Would you kindly share the measured Ki for CC1=C(C(N)=O)C(c2ccc([N+](=O)[O-])cc2)C(C(=O)NCCCN2CCC(C#N)(c3ccccc3)CC2)=C(COCCN)N1 (stereo not drawn) [Example 215] ?
3.39 µM

Entry CCOC(=O)C1(c2ccccc2)CCN(CCCNC(=O)C2=C(COCCN=[N+]=[N-])NC(CC)=C(C(=O)OC)C2c2ccc([N+](=O)[O-])cc2)CC1 (stereo not drawn) [Example 195] has what Ki?
0.288 µM

Reported Ki, compound CC1=C(C(N)=O)C(c2ccc([N+](=O)[O-])cc2)C(C(=O)NCCCN2CCC(C#N)(c3ccccc3)CC2)=C(COCCN=[N+]=[N-])N1 (stereo not drawn) [Example 214] : ____
2.57 µM

Bench note: what Ki did CCC1=C(C(=O)OCCC#N)C(c2ccc([N+](=O)[O-])cc2)C(C(=O)NCCCN2CCC(c3ccccc3)CC2)=C(COC)N1 (stereo not drawn) [Example 221] show?
0.186 µM

Which value of Ki has been reported for CC1=C(C(N)=O)C(c2ccc([N+](=O)[O-])cc2)C(C(=O)NCCCN2CCC(c3ccccc3)CC2)=C(COCCN=[N+]=[N-])N1 (stereo not drawn) [Example 216] in the records?
0.0603 µM

Give its Ki value. Item: CCC1=C(C(=O)OCCC#N)C(c2ccc([N+](=O)[O-])cc2)C(C(=O)NCCCN2CCC(C(=O)OC)(c3ccccc3)CC2)=C(COCCN=[N+]=[N-])N1 (stereo not drawn) [Example 226]
0.224 µM

Fill blank: measured Ki of the compound COC(=O)C1(c2ccccc2)CCN(CCCNC(=O)C2=C(C)NC(C)=C(C(=O)OCCC#N)C2c2ccc([N+](=O)[O-])cc2)CC1 (stereo not drawn) [Example 203] is ____.
0.759 µM

What measured Ki goes with CCOC(=O)C1(c2ccccc2)CCN(CCCNC(=O)C2=C(COCCN=[N+]=[N-])NC(CC)=C(C(=O)NC)C2c2ccc([N+](=O)[O-])cc2)CC1 (stereo not drawn) [Example 191] ?
1.95 µM

What does the data say about its Ki? Entry: CCC1=C(C(N)=O)C(c2ccc([N+](=O)[O-])cc2)C(C(=O)NCCCN2CCC(C(=O)OC)(c3ccccc3)CC2)=C(COCCN=[N+]=[N-])N1 (stereo not drawn) [Example 231]
1.23 µM

All values here come from patent US6608086B2.
